Tested on: Mycobacterium tuberculosis
Experiment: Inhibition of Mycobacterium tuberculosis GuaB2 at 50 uM
Assay Metric: inhibition

[
  {
    "Compound String": "N#Cc1ccc(Cn2nncc2COc2cccc3ccccc23)cc1",
    "inhibition": "43.5%"
  },
  {
    "Compound String": "Cc1nnc(-c2ccc(OCc3cnnn3Cc3ccc(-c4ccccc4)cc3)cc2)o1",
    "inhibition": "72.6%"
  }
]

Next up:
Incoming: Please give measured inhibition of the following entry: `COc1cccc(Cn2nncc2COc2ccc(-c3nnc(C)o3)cc2)c1`
Outgoing: 35%

====

System: Mycobacterium tuberculosis
Assay: Inhibition of Mycobacterium tuberculosis GuaB2 at 50 uM
So basically: inhibition at 80% or higher? That is Y. Lower than 80%? That is N.

Previously resolved entries follow.
[
  {
    "Compound": "COc1c(C)c2c(c(O)c1C/C=C(\\C)CCC(=O)O)C(=O)OC2 [MYCOPHENOLIC ACID]",
    "Class Label": "Y"
  },
  {
    "Compound": "CC(C(=O)Nc1ccc2c(c1)COC2=O)c1ccc(C(=O)c2ccccc2)cc1 (stereo not given)",
    "Class Label": "Y"
  },
  {
    "Compound": "O=C(Cc1ccc(F)c2ccccc12)Nc1ccc2c(c1)COC2=O",
    "Class Label": "Y"
  }
]

Incoming: Entry `Cc1nnc(-c2ccc(OCc3cnnn3Cc3ccccc3F)cc2)o1` : is its inhibition no less than 80%?
Outgoing: N

Incoming: Entry `COc1cccc(Cn2nncc2COc2ccc3ccccc3c2)c1` : is its inhibition no less than 80%?
Outgoing: N

====

Target: Inosine-5'-monophosphate dehydrogenase 2 (Homo sapiens) (UniProt P12268)
Sequence (P12268 2-514 limits assumed): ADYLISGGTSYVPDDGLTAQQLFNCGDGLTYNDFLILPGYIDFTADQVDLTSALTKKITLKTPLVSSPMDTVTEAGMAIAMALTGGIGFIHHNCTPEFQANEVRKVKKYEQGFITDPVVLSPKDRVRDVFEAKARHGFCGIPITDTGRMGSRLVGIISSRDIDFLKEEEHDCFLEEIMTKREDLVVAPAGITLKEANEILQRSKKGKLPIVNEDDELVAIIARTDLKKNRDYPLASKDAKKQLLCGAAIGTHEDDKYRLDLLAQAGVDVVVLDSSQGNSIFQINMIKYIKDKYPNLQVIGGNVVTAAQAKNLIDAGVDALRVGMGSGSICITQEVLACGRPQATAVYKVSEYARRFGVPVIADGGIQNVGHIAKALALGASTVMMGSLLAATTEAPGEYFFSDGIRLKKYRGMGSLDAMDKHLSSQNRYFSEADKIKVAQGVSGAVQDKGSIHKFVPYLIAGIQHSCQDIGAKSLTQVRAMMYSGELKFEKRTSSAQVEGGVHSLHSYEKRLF
Experiment: Inhibition of human IMPDH2 at 10 uM
Assay Metric: inhibition (%)
Report only the number, with the unit % understood.

[
  {
    "Compound": "Cc1nnc(-c2ccc(OCc3cnnn3Cc3cccc(Cl)c3)cc2)o1",
    "Recorded Value": 0.1
  },
  {
    "Compound": "CC(C(=O)Nc1ccc2c(c1)COC2=O)c1ccc(C(=O)c2ccccc2)cc1 (centres undefined)",
    "Recorded Value": 23
  },
  {
    "Compound": "Cc1nnc(-c2ccc(OCc3cnnn3Cc3ccccc3F)cc2)o1",
    "Recorded Value": 0.1
  },
  {
    "Compound": "O=C(Cc1ccc(F)c2ccccc12)Nc1ccc2c(c1)COC2=O",
    "Recorded Value": 0.1
  },
  {
    "Compound": "Cc1nnc(-c2ccc(OCc3cnnn3Cc3ccc(-c4ccccc4)cc3)cc2)o1",
    "Recorded Value": 0.1
  }
]

Incoming: Please give measured inhibition of the following entry: `COc1cccc(Cn2nncc2COc2ccc(-c3nnc(C)o3)cc2)c1`
Outgoing: 0.1

Incoming: Please give measured inhibition of the following entry: `COc1cccc(Cn2nncc2COc2ccc3ccccc3c2)c1`
Outgoing: 24.9

Incoming: Please give measured inhibition of the following entry: `N#Cc1ccc(Cn2nncc2COc2cccc3ccccc23)cc1`
Outgoing: 14.8

Incoming: Please give measured inhibition of the following entry: COc1c(C)c2c(c(O)c1C/C=C(\C)CCC(=O)O)C(=O)OC2 [MYCOPHENOLIC ACID]
Outgoing: 99.9

====

Assay: Octanol/water partition coefficient , logP of the compound
Assay type: physicochemical
Assay Metric: logP

[
  {
    "Compound String": "Cc1nnc(-c2ccc(OCc3cnnn3Cc3ccccc3F)cc2)o1",
    "logP": "2.5 to 3.5"
  },
  {
    "Compound String": "O=C(Cc1ccc(F)c2ccccc12)Nc1ccc2c(c1)COC2=O",
    "logP": "2.5 to 3.5"
  }
]

Next up:
Incoming: Please give measured logP of the following entry: `Cc1nnc(-c2ccc(OCc3cnnn3Cc3ccc(-c4ccccc4)cc3)cc2)o1`
Outgoing: > 4.5
